Assay: qHTS of pediatric cancer cell lines to identify multiple opportunities for drug repurposing: Primary screen for Saos-2 cells (AID 1347097); also: nearly all actives have a fitted effect of over 40% in size
Conditions: Saos-2 viability, CellTiter-Glo ATP luminescence, 48 h; series mostly up to 46 µM
Inconclusive results are not listed. Calls of active or inactive are those of the source. Calls follow the shape of the dose curve; as a rule, active = well fitted cell-killing curve with a large enough effect; inconclusive = small, poorly fitted or top-dose-only effect; inactive = no such curve, though single readings can be large or run the other way. Where a SMILES comes first, the peptide text is derived from it. [ ]: non-standard residue; d: D form. pGlu = O=C1CC[C@@H](C(=O)O)N1
# valid calls are active, inactive; nothing else

{"columns": ["compound", "className"],
 "data": [
  ["CC(=O)N(CC(O)CO)c1c(I)c(C(=O)NCCO)c(I)c(C(=O)NCC(O)CO)c1I (stereo unspecified)", "inactive"],
  ["C1=CC2C3C=CC(C3)C2C1 (stereo unspecified)", "inactive"],
  ["CN(C)CCN1CCN(c2cccc(Cl)c2)C1=O", "inactive"]
]}

Request: Kindly provide the recorded test outcome for the following compound: Nc1cccc2c(N)cccc12
Response: active

Request: Lookup COc1cc2nc(Cl)nc(N)c2cc1OC
Response: inactive

Request: Lookup O=C(CCCCCCCCC#CI)Oc1ccccc1
Response: inactive

Request: Lookup O=C1CC2(CCCC2)CC(=O)N1
Response: inactive

Request: Lookup CCNC(=O)[C@@H]1CCCN1C(=O)[C@H](CCCN=C(N)N)NC(=O)[C@H](CC(C)C)NC(=O)CNC(=O)[C@H](Cc1ccc(O)cc1)NC(=O)[C@H](CO)NC(=O)[C@H](Cc1c[nH]c2ccccc12)NC(=O)[C@H](Cc1cnc[nH]1)NC(=O)[C@@H]1CCC(=O)N1 ([pGlu]HWSYGLRP-NHEt)
Response: inactive

Request: Lookup CC(NCCC(c1ccccc1)c1ccccc1)c1ccccc1 (stereo unspecified)
Response: active

Request: Lookup OCCc1ccccc1
Response: inactive

Request: Lookup CC(C)OC(=O)c1cc2c(OCC(O)CNC(C)(C)C)cccc2[nH]1 (stereo unspecified)
Response: inactive

Request: Lookup CCOC(=O)c1ccc(NC(=O)CN2CCCCC2)cc1
Response: inactive

Request: Lookup [O-][n+]1cccc(/C(Cl)=N/OC[C@@H](O)CN2CCCCC2)c1
Response: inactive

###

Tested on: CAOV3
Test: Primary qHTS to identify gynecologic anti-cancer compounds using libraries of approved drugs and bioactive compounds (AID 1345084); also: nearly all actives have a fitted effect of over 55% in size
Conditions: Gynecologic cancer cell panel viability, ATPlite luminescence, 48 h; series mostly up to 57.5 µM
Results filed as inconclusive are left out. Activity calls are given as the source filed them. Calls come from the whole dose curve; as a rule, active = well fitted cell-killing curve with a large enough effect; inconclusive = small, poorly fitted or top-dose-only effect, or effect the other way; inactive = flat fitted curve, though single readings scatter.
# valid calls are true (1) = active, false (0) = inactive; nothing else

Previously resolved entries follow.
{"columns": ["compound", "className"],
 "data": [
  ["Nc1ccc2cc3ccc(N)cc3nc2c1", "true (1)"],
  ["CC(C)OP(=O)(CP(=O)(OC(C)C)OC(C)C)OC(C)C", "false (0)"],
  ["CSCC[C@H](NC(=O)[C@H](Cc1c[nH]c2ccccc12)NC(=O)CCNC(=O)OC(C)(C)C)C(=O)N[C@@H](CC(=O)O)C(=O)N[C@@H](Cc1ccccc1)C(N)=O", "false (0)"],
  ["OCCOCCN1CCN(C(c2ccccc2)c2ccc(Cl)cc2)CC1 (configuration not stated)", "false (0)"],
  ["Nc1nc2ccccc2n1Cc1ccc(F)cc1", "false (0)"],
  ["C1=CC2C3C=CC(C3)C2C1 (configuration not stated)", "false (0)"]
]}

Request: Kindly provide the recorded test outcome for the following compound: CCCC(=O)O[C@]1(C(=O)COC(=O)CC)CC[C@H]2[C@@H]3CCC4=CC(=O)CC[C@]4(C)[C@H]3[C@@H](O)C[C@@]21C
Response: false (0)

###

Assay: Cell Viability - N2a (AID 540);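 also: cells exposed to compound for 40 h at 37 °C; plate controls were DMSO alone for no effect and tamoxifen control for full effect; nearly all actives have a fitted effect of over 45% in size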
Conditions: N2a mouse neuroblastoma cell viability
Records with an inconclusive call do not appear. Active and inactive are the calls of the source. The call rests on the fitted dose curve; in most records, active means well fitted cell-killing curve with a large enough effect; inconclusive means small, poorly fitted or top-dose-only effect; inactive means flat fitted curve, though single readings scatter.

{"columns": ["chemicalSmiles", "outcome"],
 "data": [
  ["CC(C)(c1ccc(O)cc1)c1ccc(O)cc1", "inactive"],
  ["Nc1cccc2c(N)cccc12", "inactive"],
  ["O=C(NO)c1ccccc1", "inactive"]
]}

###

Assay: Cell Viability - H-4-II-E (AID 543);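 also: cells exposed to compound for 40 hours; nearly all actives have a fitted effect of over 35% in size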
Settings: H-4-II-E rat hepatoma viability; series mostly up to 92.2 µM
Results filed as inconclusive are left out. The source made the active and inactive calls. The call rests on the fitted dose curve; in most records, active means well fitted cell-killing curve with a large enough effect; inconclusive means small, poorly fitted or top-dose-only effect; inactive means flat fitted curve, though single readings scatter.
# valid calls are 1 = active, -1 = inactive; nothing else

Previously resolved entries follow.
{"columns": ["chemicalSmiles", "className"],
 "data": [
  ["CC(C)C(C)(C)C(C)(C)C(C)(C)S", -1],
  ["Nc1c2ccccc2nc2ccccc12", 1],
  ["Cc1ccc(O)cc1", -1]
]}

Below: the item to evaluate.
Request: Kindly provide the recorded test outcome for the following compound: O=C(NO)c1ccccc1
Response: -1

###

Test: Cell Viability - Renal Proximal Tubule (AID 545);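 also: cells exposed to compound for 40 hours; 0% = DMSO only and -100% = 100 µM tamoxifen; nearly all actives have a fitted effect of over 40% in size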
Conditions: renal proximal tubule cells viability, primary cells of rat origin
Records with an inconclusive call do not appear. The source made the active and inactive calls. Calls follow the shape of the dose curve; as a rule, active = well fitted cell-killing curve with a large enough effect; inconclusive = small, poorly fitted or top-dose-only effect; inactive = flat fitted curve, though single readings scatter.
# valid calls are YES = active, NO = inactive; nothing else

Previously resolved entries follow.
{"columns": ["compound", "className"],
 "data": [
  ["Cc1cc(C(C)(C)C)c(O)c(C(C)(C)C)c1", "NO"],
  ["CCCCC(CC)COC(=O)c1ccccc1C(=O)O (configuration not stated)", "NO"],
  ["O=C(NO)c1ccccc1", "NO"],
  ["O=C(Oc1ccccc1)c1ccccc1O", "NO"]
]}

Request: Kindly provide the recorded test outcome for the following compound: CC(C)C(C)(C)C(C)(C)C(C)(C)S
Response: NO

Request: Lookup COc1cc(C=O)ccc1O
Response: NO

###

Assay: Cell Viability - LYMP2-007 (AID 979);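 also: cells exposed to compound for 24 h before reading; 0% = DMSO only and the negative end = 92 µM tetraoctylammonium bromide; nearly all actives have a fitted effect of over 60% in size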
Details: LYMP2-007 lymphoblastoid cell viability; series mostly up to 92.2 µM
Results filed as inconclusive are left out. Active and inactive are the calls of the source. Calls follow the shape of the dose curve; as a rule, active = well fitted cell-killing curve with a large enough effect; inconclusive = small, poorly fitted or top-dose-only effect; inactive = flat fitted curve, though single readings scatter.
# valid calls are active, inactive; nothing else

Previously resolved entries follow.
{"columns": ["compound", "className"],
 "data": [
  ["O=C(Oc1ccccc1)c1ccccc1O", "inactive"],
  ["OCc1c[nH]c2ccccc12", "inactive"]
]}

Below: the item to evaluate.
Request: Kindly provide the recorded test outcome for the following compound: CC(C)(c1ccc(O)cc1)c1ccc(O)cc1
Response: inactive

###

System: Es-2
Test: Primary qHTS to identify gynecologic anti-cancer compounds using libraries of approved drugs and bioactive compounds (AID 1345084); also: nearly all actives have a fitted effect of over 55% in size
Conditions: Gynecologic cancer cell panel viability, ATPlite luminescence, 48 h; series mostly up to 57.5 µM
Records with an inconclusive call do not appear. Calls of active or inactive are those of the source. Calls follow the shape of the dose curve; as a rule, active = well fitted cell-killing curve with a large enough effect; inconclusive = small, poorly fitted or top-dose-only effect, or effect the other way; inactive = flat fitted curve, though single readings scatter. Where a SMILES comes first, the peptide text is derived from it.
# valid calls are 1 (active), 0 (inactive); nothing else

{"columns": ["compound", "className"],
 "data": [
  ["CC(=O)c1ccc(O)c(C(N)=O)c1", 0],
  ["CC(NN)c1ccccc1 (stereo not drawn)", 0],
  ["CCCC(CCC)(C(=O)OCC)C(=O)OCC", 0]
]}

Request: Kindly provide the recorded test outcome for the following compound: CNC[C@H](O)[C@@H](O)[C@H](O)[C@H](O)CO
Response: 0

Request: Lookup O=C(c1ccccc1)c1ccccc1
Response: 0

Request: Lookup CCCCCCCC(=O)[O-].CCCCCCCC(=O)[O-].[Zn+2]
Response: 0

Request: Lookup O=C(c1cc(O)c(O)c(O)c1)c1ccc(O)c(O)c1O
Response: 0

Request: Lookup CCN(CC)CC(=O)Nc1c(C)cccc1C(=O)OC
Response: 0

Request: Lookup CC1(C)O[C@@H]2C[C@H]3[C@@H]4C[C@H](F)C5=CC(=O)C=C[C@]5(C)[C@@]4(F)[C@@H](O)C[C@]3(C)[C@]2(C(=O)CO)O1
Response: 0

Request: Lookup O=c1[nH]c(=O)n([C@H]2O[C@H](CO)[C@@H](O)[C@@H]2O)cc1/C=C\Br
Response: 0

Request: Lookup CCCC(=O)O[C@]1(C(=O)CC)CC[C@H]2[C@@H]3CCC4=CC(=O)CC[C@]4(C)[C@H]3[C@@H](O)C[C@@]21C
Response: 0

Request: Lookup OC1(c2ccc(Cl)cc2)CCNCC1
Response: 0

Request: Lookup C/C=C(/C(=C/C)c1ccc(OC(C)=O)cc1)c1ccc(OC(C)=O)cc1
Response: 0

Request: Lookup C[C@H]1C[C@H](O)c2ccsc2S1(=O)=O
Response: 0

Request: Lookup CC[N+](CC)(CC)CCOC(=O)C(C1CCCC1)C1CCCC1
Response: 0

Request: Lookup CC(=O)N[C@@H](CO)C(=O)N[C@@H](CC(=O)O)C(=O)N[C@@H](CCCCN)C(=O)N1CCC[C@H]1C(=O)O (Ac-SDKP-OH)
Response: 0

Request: Lookup Nc1ccc2cc3ccc(N)cc3nc2c1
Response: 1

###

Experiment: qHTS of pediatric cancer cell lines to identify multiple opportunities for drug repurposing: Confirmatory screen for LAN-5 cells (AID 1347113); also: nearly all actives have a fitted effect of over 65% in size
Settings: LAN-5 neuroblastoma cell viability; series mostly up to 45.9 µM
Results filed as inconclusive are left out. Activity calls are given as the source filed them. The call rests on the fitted dose curve; in most records, active means well fitted cell-killing curve with a large enough effect; inconclusive means small, poorly fitted or top-dose-only effect, or effect the other way; inactive means no such curve, though single readings can be large or run the other way.
# valid calls are active, inactive; nothing else

Previously resolved entries follow.
{"columns": ["molecule", "className"],
 "data": [
  ["CCCC(=O)O[C@]1(C(=O)CCl)[C@@H](C)C[C@H]2[C@@H]3CCC4=CC(=O)C=C[C@]4(C)[C@@]3(F)C(=O)C[C@@]21C", "inactive"],
  ["CO[C@@H]1[C@@H](OC)[C@H](C)[C@@](O)(CC(=O)O)O[C@H]1[C@H](C)[C@H]1O[C@@]2(CC[C@@](C)([C@H]3CC[C@@](C)([C@@H]4O[C@@H]([C@H]5O[C@](C)(O)[C@H](C)C[C@@H]5C)C[C@@H]4OC4C[C@H](OC)[C@@H](OC)[C@H](C)O4)O3)O2)C[C@H](O)[C@H]1C (some centres undefined)", "active"]
]}

Request: Kindly provide the recorded test outcome for the following molecule: CC[C@@]1(O)C(=O)OCc2c1cc1n(c2=O)Cc2c-1nc1ccccc1c2/C=N/OC(C)(C)C
Response: active

Request: Lookup COc1cc(/C=C/C(N)=O)cc(OC)c1OC
Response: inactive
